Tested on: 832693-133-R-J1-PDC multi-cell spheroids, viability
METHOD: Anticancer human tumor 832693-133-R-J1-PDC patient-derived head and neck squamous carcinoma cell line growth inhibition [IpAb]; active means viability on the fitted dose curve at most 10% of control; inactive means the rest
CONDITION DESCRIPTION: second compound 0.1 µM; first compound 0.1 µM
Labels: active, inactive

{"MOLECULE": "CC(C)n1nc(-c2ccc3oc(N)nc3c2)c2c(N)ncnc21 + CC(C)NCC(C(=O)N1CCN(c2ncnc3c2C(C)CC3O)CC1)c1ccc(Cl)cc1", "LABEL VALUE": "inactive"}
{"MOLECULE": "COc1c(OCCCN2CCOCC2)ccc2c3n(c(=NC(=O)c4cnc(N)nc4)nc12)CCN3 + CCN1CCN(Cc2ccc(Nc3ncc(F)c(-c4cc(F)c5nc(C)n(C(C)C)c5c4)n3)nc2)CC1", "LABEL VALUE": "active"}
{"MOLECULE": "Cn1ncc(Cl)c1-c1cc(C(=O)NC(CN)Cc2cccc(F)c2)sc1Cl (stereo not given) + CCN1CCN(Cc2ccc(Nc3ncc(F)c(-c4cc(F)c5nc(C)n(C(C)C)c5c4)n3)nc2)CC1", "LABEL VALUE": "inactive"}
{"MOLECULE": "Cn1ncc(Cl)c1-c1cc(C(=O)NC(CN)Cc2cccc(F)c2)sc1Cl (stereo not given) + CC(C)NCC(C(=O)N1CCN(c2ncnc3c2C(C)CC3O)CC1)c1ccc(Cl)cc1", "LABEL VALUE": "inactive"}
{"MOLECULE": "Cn1ncnc1[C@H]1c2n[nH]c(=O)c3cc(F)cc(c23)N[C@@H]1c1ccc(F)cc1 + CC(C)NCC(C(=O)N1CCN(c2ncnc3c2C(C)CC3O)CC1)c1ccc(Cl)cc1", "LABEL VALUE": "inactive"}
{"MOLECULE": "CC1(C)CCC(CN2CCN(c3ccc(C(=O)NS(=O)(=O)c4ccc(NCC5CCOCC5)c([N+](=O)[O-])c4)c(Oc4cnc5[nH]ccc5c4)c3)CC2)=C(c2ccc(Cl)cc2)C1 + CCN1CCN(Cc2ccc(Nc3ncc(F)c(-c4cc(F)c5nc(C)n(C(C)C)c5c4)n3)nc2)CC1", "LABEL VALUE": "inactive"}
{"MOLECULE": "CC1(C)CCC(CN2CCN(c3ccc(C(=O)NS(=O)(=O)c4ccc(NCC5CCOCC5)c([N+](=O)[O-])c4)c(Oc4cnc5[nH]ccc5c4)c3)CC2)=C(c2ccc(Cl)cc2)C1 + CC(C)NCC(C(=O)N1CCN(c2ncnc3c2C(C)CC3O)CC1)c1ccc(Cl)cc1", "LABEL VALUE": "inactive"}
{"MOLECULE": "CCCS(=O)(=O)Nc1ccc(F)c(C(=O)c2c[nH]c3ncc(-c4ccc(Cl)cc4)cc23)c1F + CC(C)NCC(C(=O)N1CCN(c2ncnc3c2C(C)CC3O)CC1)c1ccc(Cl)cc1", "LABEL VALUE": "inactive"}
{"MOLECULE": "CCCS(=O)(=O)Nc1ccc(F)c(C(=O)c2c[nH]c3ncc(-c4ccc(Cl)cc4)cc23)c1F + CCN1CCN(Cc2ccc(Nc3ncc(F)c(-c4cc(F)c5nc(C)n(C(C)C)c5c4)n3)nc2)CC1", "LABEL VALUE": "inactive"}
{"MOLECULE": "Cc1nc(NC(=O)N2CCCC2C(N)=O)sc1-c1ccnc(C(C)(C)C(F)(F)F)c1 (stereo not given) + CC(C)NCC(C(=O)N1CCN(c2ncnc3c2C(C)CC3O)CC1)c1ccc(Cl)cc1", "LABEL VALUE": "inactive"}

----------
System: 832693-133-R-J1-PDC multi-cell spheroids, viability
METHOD: Anticancer human tumor 832693-133-R-J1-PDC cell line growth inhibition [IpAb];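 further: spheroids exposed to the drugs for one week before the viability readout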;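 on viability, T/C: 100% = DMSO vehicle control wells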
CONDITION DESCRIPTION: second compound 10 µM; first compound 0.1 µM; stronger effect = lower value
Fulfilled if viability, T/C is below 50%. Not fulfilled if not; exact matches included in Not fulfilled.

{"MOLECULE": "Cn1nccc1Nc1nccc(-c2ccn(C(CO)c3ccc(Cl)c(F)c3)c(=O)c2)n1 (stereo not given) + CC(C)NCC(C(=O)N1CCN(c2ncnc3c2C(C)CC3O)CC1)c1ccc(Cl)cc1", "MEASUREMENT TARGET": "832693-133-R-J1-PDC multi-cell spheroids, viability", "LABEL VALUE": "Not fulfilled"}
{"MOLECULE": "CCCS(=O)(=O)Nc1ccc(F)c(C(=O)c2c[nH]c3ncc(-c4ccc(Cl)cc4)cc23)c1F + CC(C)NCC(C(=O)N1CCN(c2ncnc3c2C(C)CC3O)CC1)c1ccc(Cl)cc1", "MEASUREMENT TARGET": "832693-133-R-J1-PDC multi-cell spheroids, viability", "LABEL VALUE": "Not fulfilled"}
{"MOLECULE": "Cn1ncnc1[C@H]1c2n[nH]c(=O)c3cc(F)cc(c23)N[C@@H]1c1ccc(F)cc1 + CC(C)NCC(C(=O)N1CCN(c2ncnc3c2C(C)CC3O)CC1)c1ccc(Cl)cc1", "MEASUREMENT TARGET": "832693-133-R-J1-PDC multi-cell spheroids, viability", "LABEL VALUE": "Fulfilled"}
{"MOLECULE": "Cn1ncc(Cl)c1-c1cc(C(=O)NC(CN)Cc2cccc(F)c2)sc1Cl (stereo not given) + CC(C)NCC(C(=O)N1CCN(c2ncnc3c2C(C)CC3O)CC1)c1ccc(Cl)cc1", "MEASUREMENT TARGET": "832693-133-R-J1-PDC multi-cell spheroids, viability", "LABEL VALUE": "Not fulfilled"}
{"MOLECULE": "Cc1nc(NC(=O)N2CCCC2C(N)=O)sc1-c1ccnc(C(C)(C)C(F)(F)F)c1 (stereo not given) + CC(C)NCC(C(=O)N1CCN(c2ncnc3c2C(C)CC3O)CC1)c1ccc(Cl)cc1", "MEASUREMENT TARGET": "832693-133-R-J1-PDC multi-cell spheroids, viability", "LABEL VALUE": "Fulfilled"}

----------
Test system: 832693-133-R-J1-PDC multi-cell spheroids, viability
METHOD: Anticancer human tumor 832693-133-R-J1-PDC cell line growth inhibition [IpAb];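 further: spheroids exposed to the drugs for one week before the viability readout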;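 on viability, T/C: 100% = DMSO vehicle control wells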
CONDITION DESCRIPTION: second compound 1 µM; first compound 0.01 µM; stronger effect = lower value
yes (1) if viability, T/C is below 50%. no (0) if not; exact matches included in no (0).

{"MOLECULE": "CC(C)n1nc(-c2ccc3oc(N)nc3c2)c2c(N)ncnc21 + CCN1CCN(Cc2ccc(Nc3ncc(F)c(-c4cc(F)c5nc(C)n(C(C)C)c5c4)n3)nc2)CC1", "MEASUREMENT TARGET": "832693-133-R-J1-PDC multi-cell spheroids, viability", "LABEL VALUE": "yes (1)"}
{"MOLECULE": "COc1c(OCCCN2CCOCC2)ccc2c3n(c(=NC(=O)c4cnc(N)nc4)nc12)CCN3 + CCN1CCN(Cc2ccc(Nc3ncc(F)c(-c4cc(F)c5nc(C)n(C(C)C)c5c4)n3)nc2)CC1", "MEASUREMENT TARGET": "832693-133-R-J1-PDC multi-cell spheroids, viability", "LABEL VALUE": "yes (1)"}
{"MOLECULE": "COc1c(OCCCN2CCOCC2)ccc2c3n(c(=NC(=O)c4cnc(N)nc4)nc12)CCN3 + CC(C)NCC(C(=O)N1CCN(c2ncnc3c2C(C)CC3O)CC1)c1ccc(Cl)cc1", "MEASUREMENT TARGET": "832693-133-R-J1-PDC multi-cell spheroids, viability", "LABEL VALUE": "yes (1)"}
{"MOLECULE": "Cn1ncnc1[C@H]1c2n[nH]c(=O)c3cc(F)cc(c23)N[C@@H]1c1ccc(F)cc1 + CC(C)NCC(C(=O)N1CCN(c2ncnc3c2C(C)CC3O)CC1)c1ccc(Cl)cc1", "MEASUREMENT TARGET": "832693-133-R-J1-PDC multi-cell spheroids, viability", "LABEL VALUE": "yes (1)"}
{"MOLECULE": "Cn1ncnc1[C@H]1c2n[nH]c(=O)c3cc(F)cc(c23)N[C@@H]1c1ccc(F)cc1 + CCN1CCN(Cc2ccc(Nc3ncc(F)c(-c4cc(F)c5nc(C)n(C(C)C)c5c4)n3)nc2)CC1", "MEASUREMENT TARGET": "832693-133-R-J1-PDC multi-cell spheroids, viability", "LABEL VALUE": "no (0)"}
{"MOLECULE": "CC(C)n1nc(-c2ccc3oc(N)nc3c2)c2c(N)ncnc21 + CC(C)NCC(C(=O)N1CCN(c2ncnc3c2C(C)CC3O)CC1)c1ccc(Cl)cc1", "MEASUREMENT TARGET": "832693-133-R-J1-PDC multi-cell spheroids, viability", "LABEL VALUE": "no (0)"}

----------
List of IC50 values.
Test system: 832693-133-R-J1-PDC multi-cell spheroids, viability
METHOD: Anticancer human tumor 832693-133-R-J1-PDC cell line growth inhibition [IpAb];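 further: spheroids exposed to the drugs for one week before the viability readout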
CONDITION DESCRIPTION: curve of compound

{"MOLECULE": "CC(C)n1nc(-c2ccc3oc(N)nc3c2)c2c(N)ncnc21", "IC50": "> 100 nM"}
{"MOLECULE": "C=CC(=O)N1CCN(c2nc(=O)n(-c3c(C)ccnc3C(C)C)c3nc(-c4c(O)cccc4F)c(F)cc23)C(C)C1 (centres undefined)", "IC50": "> 10000 nM"}
{"MOLECULE": "CC(=O)c1c(C)c2cnc(Nc3ccc(N4CCNCC4)cn3)nc2n(C2CCCC2)c1=O", "IC50": "> 300 nM"}
{"MOLECULE": "Cn1ncnc1[C@H]1c2n[nH]c(=O)c3cc(F)cc(c23)N[C@@H]1c1ccc(F)cc1", "IC50": "> 100 nM"}
